molecular target: ALDH1A3 (Homo sapiens, UniProt P47895); experiment: Primary biochemical assay, NAD(P)H-Glo Detection System; set-up: His-tag; made in house; host or cells: E. coli Rosetta (DE3); conditions: 30 min pre-incubation, propionaldehyde and NAD at Km
measured_metric: IC50

Take a look at these entries with their results.
[[record]]
compound = "COc1cccc(C2CCCN2CCOc2ccc3c(c2)CCC(=O)N3)c1 (stereo not shown)"
obs_value = "100 to 1000 nM"

[[record]]
compound = "O=C1CCc2cc(OCCN3CCNCC3c3ccccc3)ccc2N1 (stereo not shown)"
obs_value = "1000 to 10000 nM"

[[record]]
compound = "O=C1CCCc2cc(OCCN3CCCC3c3cccc(F)c3)ccc2N1 (stereo not shown)"
obs_value = "< 100 nM"


Alright, here's another compound for you.
So what does the record say about IC50 for Cc1nn(C)cc1C1CCCN1CCOc1ccc2c(c1)CCC(=O)N2 (stereo not shown) ?
1000 to 10000 nM

###

Target: ALDH1A3 (Homo sapiens, UniProt P47895)
Assay: ALDH1A3 cellular assay (ALDEFLUOR) in WM266.4 melanoma cells
Type: cell-based
Settings: WM266.4 cells; 60 min incubation; percentage of ALDH-positive cells
Description: Materials: WM266.4 cells were procured from ATCC. (WM266-4 is a metastatic human melanoma cell line.) The ALDEFLUOR™ Assay kit (cat. no. 01700) and Aldefluor buffer (cat. no. 01702) were procured from StemCell Technologies. […] Method: Intracellular inhibition of ALDH1A3 was assessed using the ALDEFLUOR™ Assay kit. […] The amount of fluorescent reaction product is proportional to the ALDH activity in the cells and is measured using an imaging cytometer. […]
measured_metric: IC50

Returns the measured IC50 for the input compound. Input: O=C1CCc2cc(OCCn3ccnc3-c3ccccc3)ccc2N1 [ALDHI-2041]
1000 to 10000 nM

Value lookup for IC50; key = O=C1CCc2cc(OCCN3CCCC3c3cccnc3)ccc2N1 (stereo not shown) [ALDHI-2005]
100 to 1000 nM

So what does the record say about IC50 for O=C1CCc2cc(OCCn3nccc3-c3cccc(F)c3)ccc2N1 [ALDHI-2023] ?
< 100 nM

Need IC50, item CN(CCOc1ccc2c(c1)CCC(=O)N2)C(=O)c1cccnc1 [ALDHI-3013]
1000 to 10000 nM

Item O=C1CCc2cc(OCCN3CCCCC3c3cccc(F)c3)ccc2N1 (stereo not shown) [ALDHI-2038] has what recorded IC50?
1000 to 10000 nM

###

Biological target: ALDH1A2 (Homo sapiens, UniProt O94788)
Construct: His-tag; made in house; host or cells: E. coli Rosetta (DE3)
Sequence (O94788 1-518): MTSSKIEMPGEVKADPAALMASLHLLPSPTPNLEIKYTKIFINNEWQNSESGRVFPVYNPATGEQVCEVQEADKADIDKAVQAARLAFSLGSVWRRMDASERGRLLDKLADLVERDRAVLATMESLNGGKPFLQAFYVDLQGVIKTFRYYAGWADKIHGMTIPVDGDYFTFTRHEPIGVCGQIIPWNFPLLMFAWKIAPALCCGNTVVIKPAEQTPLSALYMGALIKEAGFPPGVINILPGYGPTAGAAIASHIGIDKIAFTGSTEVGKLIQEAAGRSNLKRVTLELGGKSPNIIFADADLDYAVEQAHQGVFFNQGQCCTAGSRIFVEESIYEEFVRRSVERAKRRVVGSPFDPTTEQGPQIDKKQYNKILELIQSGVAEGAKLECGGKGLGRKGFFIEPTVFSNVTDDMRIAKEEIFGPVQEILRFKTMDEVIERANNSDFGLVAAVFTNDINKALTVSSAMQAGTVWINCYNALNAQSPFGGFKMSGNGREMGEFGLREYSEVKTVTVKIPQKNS
Assay: Selectivity biochemical assay, NAD(P)H-Glo Detection System
pIC50: −log10 of the molar value.
measured_metric: pIC50

Worked set:
[[record]]
compound = "Cc1ccc(C2CCCN2CCOc2ccc3c(c2)CCC(=O)N3)cc1 (stereo not shown) [ALDHI-2010]"
obs_value = "≤ 4.00"

[[record]]
compound = "O=C1CCc2cc(OCCN3C(=O)CCC3c3ccccc3)ccc2N1 (stereo not shown) [ALDHI-2051]"
obs_value = "5.00 to 6.00"

[[record]]
compound = "O=C1CCc2cc(OCCn3ccnc3-c3ccccc3)ccc2N1 [ALDHI-2041]"
obs_value = "5.00 to 6.00"

[[record]]
compound = "O=C1CCc2cc(NC(=O)c3scnc3-c3cccc(F)c3)ccc2N1 [ALDHI-1003]"
obs_value = "5.00 to 6.00"

[[record]]
compound = "O=C1CCc2cc(OCCN3CCOCC3c3cccc(F)c3)ccc2N1 (stereo not shown) [ALDHI-2031]"
obs_value = "6.00 to 7.00"

[[record]]
compound = "O=C1CCc2cc(NC(=O)c3sc(N4CCOCC4)nc3-c3cccc(F)c3)ccc2N1 [ALDHI-1001]"
obs_value = "≤ 4.00"

[[record]]
compound = "C[C@H](c1ccccc1)N(CCO)CCOc1ccc2c(c1)CCC(=O)N2 [ALDHI-3006]"
obs_value = "5.00 to 6.00"

[[record]]
compound = "CN(CCOc1ccc2c(c1)CCC(=O)N2)C(CO)c1cccc(F)c1 (stereo not shown) [ALDHI-3003]"
obs_value = "5.00 to 6.00"

[[record]]
compound = "O=C1CCc2cc(OCCN3CCC[C@H]3c3cccc(F)c3)ccc2N1 [ALDHI-2018]"
obs_value = "6.00 to 7.00"

[[record]]
compound = "O=C1CSc2cc(OCCN3CCCC3c3ccncc3)ccc2N1 (stereo not shown) [ALDHI-2029]"
obs_value = "4.00 to 5.00"


// lookup pIC50 for CN(CCOc1ccc2c(c1)CCC(=O)N2)Cc1cccc(F)c1 [ALDHI-3001]
5.00 to 6.00

// query pIC50 value for entry CN(CCOc1ccc2c(c1)CCC(=O)N2)C(=O)c1cccc(F)c1 [ALDHI-3008]
5.00 to 6.00

###

Target: ALDH1A3 (Homo sapiens)
Sequence (P47895 1-512): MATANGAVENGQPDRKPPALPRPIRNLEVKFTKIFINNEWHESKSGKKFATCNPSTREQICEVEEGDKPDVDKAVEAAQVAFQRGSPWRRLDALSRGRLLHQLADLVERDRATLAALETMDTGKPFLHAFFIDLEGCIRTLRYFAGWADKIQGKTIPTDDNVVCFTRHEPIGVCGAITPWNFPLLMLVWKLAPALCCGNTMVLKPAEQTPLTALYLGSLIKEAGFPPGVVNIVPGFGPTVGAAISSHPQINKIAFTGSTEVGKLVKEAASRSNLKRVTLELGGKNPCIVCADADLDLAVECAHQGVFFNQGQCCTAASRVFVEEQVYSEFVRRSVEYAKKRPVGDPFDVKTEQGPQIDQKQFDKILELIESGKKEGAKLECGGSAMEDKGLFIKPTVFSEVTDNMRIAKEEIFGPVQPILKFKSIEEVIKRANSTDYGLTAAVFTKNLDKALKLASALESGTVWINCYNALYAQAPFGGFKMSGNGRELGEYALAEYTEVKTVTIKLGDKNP
Test: Primary biochemical assay, NAD(P)H-Glo Detection System
Design: His-tag; made in house; host or cells: E. coli Rosetta (DE3)
Conditions: 30 min pre-incubation, propionaldehyde and NAD at Km
The compounds listed here are annotated with their IC50.

Some compounds with known IC50 results, for comparison:
[[record]]
compound = "Cc1cccc(C2CCCN2CCOc2ccc3c(c2)CCC(=O)N3)c1 (stereo not drawn)"
obs_value = "100 to 1000 nM"

[[record]]
compound = "Cc1ccccc1C1CCCN1CCOc1ccc2c(c1)CCC(=O)N2 (stereo not drawn)"
obs_value = "100 to 1000 nM"

[[record]]
compound = "Cc1nc(-c2cccc(F)c2)c(C(=O)Nc2ccc3c(c2)CCC(=O)N3)s1"
obs_value = "< 100 nM"


Please give the measured IC50 for this compound: O=C1CCc2cc(OCCN3CCCC3c3cc(F)cc(F)c3)ccc2N1 (stereo not drawn)
< 100 nM

Entry CS(=O)(=O)N1CCN(CCOc2ccc3c(c2)CCC(=O)N3)C(c2ccccc2)C1 (stereo not drawn) has what IC50?
1000 to 10000 nM

Request the reported IC50 associated with Cn1cc(CN(CCO)CCOc2ccc3c(c2)CCC(=O)N3)cn1
1000 to 10000 nM

What measured IC50 goes with O=C1CCc2cc(NC(=O)c3scnc3-c3cccs3)ccc2N1 ?
< 100 nM

Give the measured IC50 of O=C1CSc2cc(OCCN3CCCC3c3cccnc3)ccc2N1 (stereo not drawn) .
< 100 nM

Looking for the measured IC50 of O=C1CCc2cc(NC(=O)c3ccccc3-c3cccc(F)c3)ccc2N1 , can you help?
1000 to 10000 nM

// returns reported IC50 for input O=C1CCc2cc(OCCN3CCC[C@H]3c3cccc(F)c3)ccc2N1
< 100 nM

Requested read-out: IC50. Entry: CCn1cc(C2CCCN2CCOc2ccc3c(c2)CCC(=O)N3)cn1 (stereo not drawn)
100 to 1000 nM
